assayedSystem: SOS1 binding to KRAS G12C (Homo sapiens)
Construct: consisting of amino acid residues 564 to 1049 which are the catalytic domain; MSC-11-538 (KRAS G12C)
Sequence (Q07889 564-1049): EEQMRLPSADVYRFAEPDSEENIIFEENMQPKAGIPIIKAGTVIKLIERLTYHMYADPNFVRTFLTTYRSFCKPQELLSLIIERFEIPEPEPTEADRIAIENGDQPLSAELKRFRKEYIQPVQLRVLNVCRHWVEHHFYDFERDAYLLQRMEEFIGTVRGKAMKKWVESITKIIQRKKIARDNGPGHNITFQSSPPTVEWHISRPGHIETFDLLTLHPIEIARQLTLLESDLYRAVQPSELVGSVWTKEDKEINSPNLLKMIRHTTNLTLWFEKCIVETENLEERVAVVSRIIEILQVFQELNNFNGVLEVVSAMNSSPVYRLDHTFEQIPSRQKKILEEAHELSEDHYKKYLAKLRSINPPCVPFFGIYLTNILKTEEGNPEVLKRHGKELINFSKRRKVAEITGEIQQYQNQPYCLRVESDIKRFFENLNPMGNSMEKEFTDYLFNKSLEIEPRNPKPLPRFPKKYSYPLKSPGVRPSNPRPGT
assay: SOS1 GTP substitution inhibition test (HTRF/TR-FRET, KRAS G12C-SOS1 binding inhibitory ability)
conditionsUsed: HTRF, GST-KRAS G12C (2-169), SOS1-Strep (564-1049), 1.6, 8, 40, 200, 1,000 nM
pIC50: −log10 of the molar value.
measuredParameter: pIC50

Please review the entries below; each comes with its answer.
* CCNc1cc2c(N[C@H](C)c3cc(N)cc(C(F)(F)F)c3)nc(C)nc2cc1C(=O)N1CCOCC1 | 7.00 to 7.30
* COc1cc2c(N[C@H](C)c3cc(N)cc(C(F)(F)F)c3)nc(C)nc2cc1C(=O)N1CCSC1 | ≥ 7.30

Lab note: each compound below needs its pIC50 filled in.
1. COc1cc2c(NC(C)c3cc(-c4cccc5c4CNCC5)cs3)nc(C)nc2cc1C(=O)N1CCOCC1 (stereo not drawn)
2. COc1cc2c(N[C@H](C)c3cc(N)cc(-c4cncs4)c3)nc(C)nc2cc1C(=O)N1CCOCC1
3. CNc1cc2c(N[C@H](C)c3cc(N)cc(C(F)(F)F)c3)nc(C)nc2cc1C(=O)N1CCS(=O)(=O)CC1
4. COc1cc2c(N[C@H](C)c3cccc(N)c3OC)nc(C)nc2cc1C(=O)N1CCOCC1
5. CNc1cc2c(N[C@H](C)c3cc(C)cc(N)c3)nc(C)nc2cc1C(=O)N1CCOCC1
6. COc1cc2c(NC(C)c3cc(-c4ccccc4CO)cs3)nc(C)nc2cc1C(=O)N1CCOCC1 (stereo not drawn)
7. COc1cc2c(N[C@H](C)c3cc(N)cc(C(F)(F)F)c3)nc(C)nc2cc1C(=O)N1CC(F)C1
8. Cc1nc(N[C@H](C)c2cc(N)cc(C(F)(F)F)c2)c2cc(O[C@H]3CCOC3)c(C(=O)N3CCOCC3)cc2n1

A)
1. < 7.00
2. 7.00 to 7.30
3. ≥ 7.30
4. < 7.00
5. 7.00 to 7.30
6. < 7.00
7. < 7.00
8. 7.00 to 7.30

Below are 4 compounds. Give each one its pIC50.
1. Cc1nc(N[C@H](C)c2cc(N)cc(C(F)F)c2F)c2cc(NC(C)C)c(C(=O)N3CCOCC3)cc2n1
2. CNc1cc2c(N[C@H](C)c3cc(N)cc(C(F)F)c3F)nc(C)nc2cc1C(=O)N1CCOCC1
3. COc1cc2c(N[C@H](C)c3cc(N)cc(C(F)F)c3F)nc(C)nc2cc1C(=O)N1CCOCC1
4. CNc1cc2c(N[C@H](C)c3cc(N)cc(C(F)(F)F)c3F)nc(C)nc2cc1C(=O)N1CCOCC1

A)
1: ≥ 7.30; 2: ≥ 7.30; 3: ≥ 7.30; 4: ≥ 7.30

Sourced from patent US20240067613A1
